Catalogue of IC50 values
- ASSAYED SYSTEM: recombinant N-terminal GST-tagged human Rho kinase 2 (ROCK2, amino acids 1-552) (Homo sapiens)
- Construct: ROCK2, amino acids 1-552; purchased Invitrogen Inc. PV3759
- Sequence (O75116 1-552): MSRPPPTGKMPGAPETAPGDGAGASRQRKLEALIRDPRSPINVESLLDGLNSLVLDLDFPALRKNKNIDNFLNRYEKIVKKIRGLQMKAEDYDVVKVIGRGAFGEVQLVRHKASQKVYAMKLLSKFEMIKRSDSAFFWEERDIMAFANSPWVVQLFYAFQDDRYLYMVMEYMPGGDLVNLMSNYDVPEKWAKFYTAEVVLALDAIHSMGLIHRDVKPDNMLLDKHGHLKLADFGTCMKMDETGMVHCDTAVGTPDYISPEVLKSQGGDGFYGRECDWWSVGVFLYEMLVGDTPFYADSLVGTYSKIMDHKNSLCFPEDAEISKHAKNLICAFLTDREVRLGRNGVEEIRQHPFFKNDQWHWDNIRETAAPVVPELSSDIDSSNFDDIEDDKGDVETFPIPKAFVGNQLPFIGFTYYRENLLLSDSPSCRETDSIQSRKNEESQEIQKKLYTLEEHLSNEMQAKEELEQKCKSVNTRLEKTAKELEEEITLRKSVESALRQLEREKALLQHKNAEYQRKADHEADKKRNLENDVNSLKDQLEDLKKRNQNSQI
- ASSAY OVERVIEW: In vitro Rho kinase assay (luciferase-based ATP consumption), ROCK2
- Format: biochemical
- CONDITION DESCRIPTION: recombinant GST-tagged human ROCK2, luciferase-based ATP consumption; read-out: ROCK2 IC50

>>> result("Cc1ccc(N2CCN(C(=O)c3ccc4sc(-c5ccnc(N)n5)c(C)c4c3)CC2)cc1C")
"> 5 µM"
>>> result("CCCCCc1ccc(C(=O)NCc2ccc3sc(-c4ccnc(N)n4)c(C)c3c2)cc1")
"> 5 µM"
>>> result("Cc1ccc(C)c(CNC(=O)c2ccc3sc(-c4ccnc(N)n4)c(C)c3c2)c1")
"< 5 µM"
>>> result("Cc1c(-c2ccnc(N)n2)sc2ccc(CNC(=O)c3cnc(O)c(Cl)c3)cc12")
"> 5 µM"

Then this molecule:
In plain terms, Cc1cnc(CNC(=O)c2ccc3sc(-c4ccnc(N)n4)c(C)c3c2)cn1 has a documented IC50 of < 5 µM
